Biological target: T1, HPV 16 E6(29-38)-peptide-MHC tetramer complex (human papillomavirus 16 (HPV16); human)
T1 construct: also called E6(29-38)-specific tetramer
Experiment: flow cytometry, peptide-MHC tetramer staining of TCR-transduced primary human T cells;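 also: normal donor T cells activated with anti-CD3/anti-CD28, then lentivirally transduced with TCRs, with mock-transduced cells as control, co-stained for the transduction marker and CD8, tetramers presented by HLA-A02:01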
Provide the reported % of CD8+ cells positive for E6(29-38) tetramer staining of each item.
Output spec: scalar in %, unitless text.

Identify measured % of CD8+ cells positive for E6(29-38) tetramer staining corresponding to TCR 62 (mouse constant regions) (TCR, V domains shown) V domain 1: AQTVTQSQPEMSVQEAETVTLSCTYDTSENNYYLFWYKQPPSRQMILVIRQEAYKQQNATENRFSVNFQKAAKSFSLKISDSQLGDTAMYFCALYTYKYIFGTGTRLKVLA V domain 2: EAGVAQSPRYKIIEKRQSVAFWCNPISGHATLYWYQQILGQGPKLLIQFQNNGVVDDSQLPKDRFSAERLKGVDSTLKIQPAKLEDSAVYLCASSLDTRGSSYNEQFFGPGTRLTVLE
0.2

Identify measured % of CD8+ cells positive for E6(29-38) tetramer staining corresponding to TCR 59 (mouse constant regions) (TCR, V domains shown) V domain 1: GQQVMQIPQYQHVQEGEDFTTYCNSSTTLSNIQWYKQRPGGHPVFLIQLVKSGEVKKQKRLTFQFGEAKKNSSLHITATQTTDVGTYFCAPKREYGNKLVFGAGTILRVKS V domain 2: EPEVTQTPSHQVTQMGQEVILRCVPISNHLYFYWYRQILGQKVEFLVSFYNNEISEKSEIFDDQFSVERPDGSNFTLKIRSTKLEDSAMYFCAYSGRASYEQYFGPGTRLTVTE
0.11

Identify measured % of CD8+ cells positive for E6(29-38) tetramer staining corresponding to TCR 60 (mouse constant regions) (TCR, V domains shown) V domain 1: QKEVEQNSGPLSVPEGAIASLNCTYSDRGSQSFFWYRQYSGKSPELIMFIYSNGDKEDGRFTAQLNKASQYVSLLIRDSQPSDSATYLCAVNMLGSGGSNYKLTFGKGTLLTVNP V domain 2: EPEVTQTPSHQVTQMGQEVILRCVPISNHLYFYWYRQILGQKVEFLVSFYNNEISEKSEIFDDQFSVERPDGSNFTLKIRSTKLEDSAMYFCAISRTVSYEQYFGPGTRLTVTE
0.15

Identify measured % of CD8+ cells positive for E6(29-38) tetramer staining corresponding to TCR 56 (mouse constant regions) (TCR, V domains shown, Human variable regions on mouse constant regions with added cysteines (Calpha Thr48Cys, Cbeta Ser57Cys); Entries are the full chains without signal peptide) V domain 1: GQNIDQPTEMTATEGAIVQINCTYQTSGFNGLFWYQQHAGEAPTFLSYNVLDGLEEKGRFSSFLSRSKGYSYLLLKELQMKDSASYLCAVRDWGYGGATNKLIFGTGTLLAVQP V domain 2: NAGVMQNPRHLVRRRGQEARLRCSPMKGHSHVYWYRQLPEEGLKFMVYLQKENIIDESGMPKERFSAEFPKEGPSILRIQQVVRGDSAAYFCASSPDESRDSNQPQHFGDGTRLSILE
0.07
